Test system: Bifidobacterium longum subsp. longum
protocol.text: growth AUC relative to DMSO control (median of replicates) (fraction); higher = more growth (less inhibition), active = hit call of the paper
condition.notes: 20 µM; 24 h
quantity.name: growth AUC

>>> measurement("COC(=O)c1ccccc1S(=O)(=O)NC(=O)n1nc(OCC(C)O)n(C)c1=O (stereo not drawn)")
0.956
>>> measurement("Cc1nc(C(F)(F)F)c(C(=O)Nc2c(Br)cc(OC(F)(F)F)cc2Br)s1")
1
>>> measurement("COC1CCC2(CC1)NC(=O)C(O)(c1cc(C)ccc1C)C2=O (stereo not drawn)")
1.05
>>> measurement("O=C(Nc1ccc(F)cc1-c1ccc(Cl)c(Cl)c1)c1cn[nH]c1C(F)F")
0.952
>>> measurement("Nc1cc(Cl)nc(C(=O)O)c1Cl")
1.06
>>> measurement("ClC=C(c1ccc(Cl)cc1)c1ccc(Cl)cc1")
1
>>> measurement("COc1c(Cl)ccc(Cl)c1C(=O)O")
0.926
>>> measurement("CC(C)C(O)(c1ccc(OC(F)(F)F)cc1)c1cncnc1 (stereo not drawn)")
1.03
